Tested on: SK-MEL-28 melanoma
protocol-summary: NCI tumour cell line growth inhibition, 48 h
Each entry below carries its recorded TGI.

Known results for compounds:
Cc1cc(N(CCC#N)CCC#N)ccc1/C=C1/CN(N2C(=O)/C(=C/c3ccc(N(CCC#N)CCC#N)cc3C)N=C2c2ccccc2)C(c2ccccc2)=N1 ... > 100 µM
O=C(NNC(=S)Nc1ccccc1)C12CC3CC(CC(C3)C1)C2 ... > 100 µM
Cc1c(O)c(OC2OC(CO)C(O)C(O)C2O)cc2c1CC[C@@H]1C2(C)C(=O)C[C@]2(C)[C@@H]([C@@](C)(O)C(O)/C=C/C(C)(C)O)[C@H](O)C[C@@]12C (stereo not given in full) ... > 100 µM
Cc1ccc2c(c1)C(=O)/C(=C1/CCc3ccc(C)cc31)C2 ... > 100 µM
CC(=O)OCc1nc(C#N)c(N)o1 ... > 100 µM
CCOC(=O)c1ccc2c(c1)nc1n2C(c2c(F)cccc2F)SC1 (stereo not given) ... > 100 µM
O=S(=O)(NCCNc1cc(-c2cn(-c3ccccc3)nc2-c2cccc(O)c2)ccn1)c1ccc(C(F)(F)F)cc1 ... 9.83 µM
CN(C)c1ccc(N=Nc2cccc3ccoc23)cc1 ... > 100 µM

Dear colleague, I am looking for the recorded TGI of the following compound: O=C(Sc1c(-c2ccccc2)c(=O)n(-c2ccccc2)c(=S)n1-c1ccccc1)c1ccc(Cl)cc1 > 100 µM

Dear colleague, I am looking for the recorded TGI of the following compound: O=S(=O)(O)c1cc(S(=O)(=O)O)c2c(N=Nc3cccc4ccccc34)c(O)ccc2c1 > 100 µM

Dear colleague, I am looking for the recorded TGI of the following compound: CCCCCCCC/C=C\CCCCCCCCNc1ccn(C2OC(COP(=O)(O)OC3CC(n4cc(F)c(=O)[nH]c4=O)OC3CO)C(O)C2O)c(=O)n1 (stereo not given) > 100 µM

Dear colleague, I am looking for the recorded TGI of the following compound: Cc1nnc(Nc2ccc(Cl)cc2)o1 > 10 µM

Dear colleague, I am looking for the recorded TGI of the following compound: O=C1CC2[C@@H](N3CCCC3)CCC(N1Cc1ccccc1)C2(O)O (stereo not given in full) > 100 µM

Dear colleague, I am looking for the recorded TGI of the following compound: N=c1nc(N)c2cc3c(N)nc(=N)c3cc12 10.7 µM

Dear colleague, I am looking for the recorded TGI of the following compound: CC12CN(CC[N+](C)(C)C)CC1(C)C1CCC2O1 (stereo not given) > 100 µM

Dear colleague, I am looking for the recorded TGI of the following compound: CCOC(=O)[C@H](CSSc1ncnc2cc[nH]c12)NC(=O)[C@@H](C)c1ccc2cc(OC)ccc2c1 > 100 µM

Dear colleague, I am looking for the recorded TGI of the following compound: CC1(C)SC2C(C(=O)O)N=C(Cc3ccccc3)N2C1C(=O)O (stereo not given) > 100 µM

Reference source for all entries: PubChem BioAssay (NCI)
